Target: Lysosomal alpha-glucosidase (Homo sapiens) (UniProt P10253)
Assay: Confirmation of Inhibitors and Activators of Human alpha-Glucosidase From Spleen Homogenate
Settings: alpha-glucosidase enzyme activity; series mostly up to 60.5 µM
Results filed as inconclusive are left out. Active and inactive are the calls of the source. Calls follow the shape of the dose curve; as a rule, active = well fitted curve in either direction with a large enough effect; inconclusive = small, poorly fitted or top-dose-only effect; inactive = no such curve, though single readings can be large or run the other way.
Can you answer with just one of these options? YES for active, NO for inactive

CCc1ccc(-c2nc(-c3cc4ccc(OC(C)=O)cc4oc3=O)sc2C)cc1 :: NO
CCCN1CNc2c(c(=O)[nH]c(=S)n2CCc2cc(OC)ccc2OC)C1 :: YES
COc1ccc(/C=C/c2nnc(NC(=O)CSc3ccc(C)cc3)s2)cc1 :: NO
COc1ccc2cc(C#N)c(=O)oc2c1 :: NO

Query :: For CC1OC(OC2C(CO)OC(OC3C(CO)OC(O)C(O)C3O)C(O)C2O)C(O)C(O)C1NC1C=C(CO)C(O)C(O)C1O (configuration not stated) , what call appears in the results of this test?
Result :: NO

Query :: For O=S(=O)(c1ccc(O)cc1)N1CCOCC1 , what call appears in the results of this test?
Result :: NO

Query :: For COc1ccc(CCn2c3c(c(=O)[nH]c2=S)CN(c2ccccc2)CN3)cc1OC , what call appears in the results of this test?
Result :: YES

Query :: For Cc1cccc(-n2c(N)cc(=O)[nH]c2=S)c1 , what call appears in the results of this test?
Result :: NO

Query :: For C=C(C)CC(NCc1ccco1)c1ccc(OC)cc1 (configuration not stated) , what call appears in the results of this test?
Result :: NO

Query :: For O=c1[nH]cc(CCc2ccccc2)c2ncncc12 , what call appears in the results of this test?
Result :: NO

Query :: For O=c1cc(-c2ccccc2)[nH]c2[nH]n(-c3ccccc3)c(=O)c12 , what call appears in the results of this test?
Result :: NO

Query :: For O=C(O)Cc1sc(-c2cc3ccccc3oc2=O)nc1-c1ccc(Br)cc1 , what call appears in the results of this test?
Result :: NO

Query :: For CCN(CC)c1ccc(/C=N/NC(=O)C(O)c2ccccc2)cc1 (configuration not stated) , what call appears in the results of this test?
Result :: NO

Query :: For O=S(=O)(c1ccccc1Br)N1CCOCC1 , what call appears in the results of this test?
Result :: NO

Query :: For Cc1ccc(S(=O)(=O)N2CCOCC2)cc1 , what call appears in the results of this test?
Result :: NO

Query :: For COc1ccc(C#Cc2c[nH]c(=O)c3cncnc23)cc1OC , what call appears in the results of this test?
Result :: NO

Query :: For Cc1ccc(S(=O)(=O)N2CCN(CC(=O)N/N=C\c3ccccn3)CC2)cc1 , what call appears in the results of this test?
Result :: NO

---

Target: Lysosomal alpha-glucosidase (Homo sapiens) (UniProt P10253)
Assay: Confirmation of Inhibitors and Activators of Human alpha-Glucosidase From Spleen Homogenate
Conditions: alpha-glucosidase enzyme activity; series mostly up to 60.5 µM
Inconclusive results are not listed. Calls of active or inactive are those of the source. The call rests on the fitted dose curve; in most records, active means well fitted curve in either direction with a large enough effect; inconclusive means small, poorly fitted or top-dose-only effect; inactive means no such curve, though single readings can be large or run the other way.
Can you answer with just one of these options? class 1 for active, class 0 for inactive

Observe how each entry below is paired with its result.
CCN(CC)S(=O)(=O)c1ccc2c(c1)-c1cc(S(=O)(=O)N(CC)CC)ccc1C2=NNC(N)=S :: class 0
CCc1sc(-c2cc3cccc(OC)c3oc2=O)nc1-c1ccccc1 :: class 0
O=S(=O)(c1ccc2ccccc2c1)N1CCOCC1 :: class 0
Cc1sc(-c2cc3c(ccc4ccccc43)oc2=O)nc1-c1ccccc1 :: class 0
Cc1ccc(-n2c3c(c(=O)[nH]c2=S)C(C(F)(F)F)(C(F)(F)F)NC(=O)N3)cc1 :: class 0

Query :: For CN(C(=O)N1CCN(S(=O)(=O)c2ccccc2)CC1)c1ccccc1 , what call appears in the results of this test?
Result :: class 0

Query :: For CCCN1CNc2c(c(=O)[nH]c(=S)n2CCc2cccc(Cl)c2)C1 , what call appears in the results of this test?
Result :: class 1

Query :: For O=C1Cc2cc(S(=O)(=O)N3CCN(c4ccc(CO)cc4)CC3)ccc2N1 , what call appears in the results of this test?
Result :: class 1

Query :: For CCCn1c(N)c(CC)c(=O)[nH]c1=O , what call appears in the results of this test?
Result :: class 0

Query :: For CCCN1CNc2c(c(=O)[nH]c(=S)n2-c2ccc(Cl)cc2)C1 , what call appears in the results of this test?
Result :: class 0

Query :: For Clc1ncc(C#Cc2ccccc2)c2ncncc12 , what call appears in the results of this test?
Result :: class 0

Query :: For COC(=O)CSc1ccc(C#N)c(SCC(=O)OC)c1 , what call appears in the results of this test?
Result :: class 0

Query :: For O=C(CSc1ncc(C(F)(F)F)cc1Cl)N1CCN(S(=O)(=O)c2ccccc2)CC1 , what call appears in the results of this test?
Result :: class 0

---

Target: Lysosomal alpha-glucosidase (Homo sapiens) (UniProt P10253)
Test: Confirmation of Inhibitors and Activators of Human alpha-Glucosidase From Spleen Homogenate
Details: alpha-glucosidase enzyme activity; series mostly up to 60.5 µM
Inconclusive results are not listed. Activity calls are given as the source filed them. Calls follow the shape of the dose curve; as a rule, active = well fitted curve in either direction with a large enough effect; inconclusive = small, poorly fitted or top-dose-only effect; inactive = no such curve, though single readings can be large or run the other way.
Can you answer with just one of these options? 1 = active, 0 = inactive

Query :: For CCCN1CNc2c(c(=O)[nH]c(=S)n2CCc2cccc(C)c2C)C1 , what call appears in the results of this test?
Result :: 1

---

Biological target: Lysosomal alpha-glucosidase (Homo sapiens) (UniProt P10253)
Test: Confirmation of Inhibitors and Activators of Human alpha-Glucosidase From Spleen Homogenate
Settings: alpha-glucosidase enzyme activity; series mostly up to 60.5 µM
Records with an inconclusive call do not appear. The source made the active and inactive calls. Calls come from the whole dose curve; as a rule, active = well fitted curve in either direction with a large enough effect; inconclusive = small, poorly fitted or top-dose-only effect; inactive = no such curve, though single readings can be large or run the other way.
Can you answer with just one of these options? active, inactive

O=C1c2ccccc2NC(c2cccnc2)N1c1ccccc1F (centres undefined) :: inactive
Nc1cc(=O)[nH]c(=S)n1-c1cccc(C(F)(F)F)c1 :: inactive
Cc1ccc(N/N=C2\CCS(=O)(=O)c3sccc32)cc1 :: inactive
CC(C)(C)OC(=O)NCCCC[C@H](NC(=O)c1nc[nH]c1C(=O)NCc1ccccc1)C(=O)OC(C)(C)C :: inactive

Query :: For COc1ccc(CCc2c[nH]c(=O)c3cncnc23)cc1OC , what call appears in the results of this test?
Result :: inactive

Query :: For O=C(Cn1c(=O)[nH]n(-c2ccccc2)c1=O)N1CCCc2ccccc21 , what call appears in the results of this test?
Result :: inactive

Query :: For Cc1csc(-c2cc3ccccc3oc2=O)n1 , what call appears in the results of this test?
Result :: active

Query :: For CCCN1CNc2c(c(=O)[nH]c(=S)n2CCC(C)(C)C)C1 , what call appears in the results of this test?
Result :: inactive

Query :: For COc1ccc(NS(=O)(=O)c2ccc(O)c(NC(=O)c3cc4c(C)nn(-c5ccc(F)cc5)c4s3)c2)cc1 , what call appears in the results of this test?
Result :: inactive

Query :: For O=C(Nc1ccc(OCC(=O)N2CCN(S(=O)(=O)c3ccccc3)CC2)cc1)c1ccco1 , what call appears in the results of this test?
Result :: inactive

Query :: For COc1ccc(CCN2CNc3c(c(=O)n(C)c(=O)n3C)C2)cc1OC , what call appears in the results of this test?
Result :: inactive

Query :: For CC(=O)c1ccc(N2CCN(S(=O)(=O)c3ccc4c(c3)OCC(=O)N4)CC2)cc1 , what call appears in the results of this test?
Result :: inactive

Query :: For COC(=O)c1cccc(S(=O)(=O)N2CCOCC2)c1 , what call appears in the results of this test?
Result :: inactive

Query :: For Cn1c(=O)c2c(nc(NCc3ccc4c(c3)OCO4)n2Cc2ccc(F)cc2)n(C)c1=O , what call appears in the results of this test?
Result :: inactive

Query :: For O=C1c2cc(S(=O)(=O)N3CCOCC3)ccc2-c2ccc(S(=O)(=O)N3CCOCC3)cc21 , what call appears in the results of this test?
Result :: inactive

Query :: For CCc1sc(-c2cc3ccc(O)cc3oc2=O)nc1-c1ccccc1 , what call appears in the results of this test?
Result :: inactive

Query :: For CN(CCO)S(=O)(=O)c1ccc2c(c1)C(=NN)c1cc(S(=O)(=O)N(C)CCO)ccc1-2 , what call appears in the results of this test?
Result :: inactive

Query :: For O=C(COc1ccc2ccccc2c1)N1CCN(C(=O)c2ccco2)CC1 , what call appears in the results of this test?
Result :: inactive

Query :: For Cc1ccc(N2CCN(S(=O)(=O)c3ccc4c(c3)CC(=O)N4)CC2)cc1 , what call appears in the results of this test?
Result :: inactive

Query :: For COc1cc(-c2cc(N3C(=O)Nc4ccccc4N3O)n[nH]2)cc(OC)c1OC , what call appears in the results of this test?
Result :: inactive

---

Biological target: Lysosomal alpha-glucosidase (Homo sapiens) (UniProt P10253)
Test: Confirmation of Inhibitors and Activators of Human alpha-Glucosidase From Spleen Homogenate
Settings: alpha-glucosidase enzyme activity; series mostly up to 60.5 µM
Inconclusive results are not listed. Active and inactive are the calls of the source. Calls follow the shape of the dose curve; as a rule, active = well fitted curve in either direction with a large enough effect; inconclusive = small, poorly fitted or top-dose-only effect; inactive = no such curve, though single readings can be large or run the other way.
Can you answer with just one of these options? 1 = active, -1 = inactive

Observe how each entry below is paired with its result.
c1ccc(-c2nc3nc4ccccc4nc3n2CC2CCCO2)cc1 (centres undefined) :: -1
OCC1NCC(O)C(O)C1O (centres undefined) :: -1
COc1ccc2nc3c(cc2c1)Cn1c-3nc2ccccc2c1=O :: -1
CCCc1cc(-c2nc(N)ncc2-c2ccc3c(c2)OCCCO3)c(O)cc1OC :: -1
COc1ccc(CCn2c3c(c(=O)[nH]c2=S)CN(CC(C)C)CN3)cc1OC :: 1

Query :: For CNC(=S)/N=C(\Nc1ccc(C)cc1)c1ccccc1 , what call appears in the results of this test?
Result :: -1

Query :: For COc1cccc2cc(-c3nc4c(s3)CCc3ccccc3-4)c(=O)oc12 , what call appears in the results of this test?
Result :: -1

Query :: For CCc1sc(-c2cc3cccc(OC)c3oc2=O)nc1-c1cc(C)ccc1C , what call appears in the results of this test?
Result :: 1

Query :: For N#C/C(=C\c1c(N2CCCCC2)nc2ccccn2c1=O)C(=O)NC1CCS(=O)(=O)C1 (centres undefined) , what call appears in the results of this test?
Result :: 1

Query :: For COC(=O)c1cc(OC)c(OC)cc1NC(=O)CCCCCN1C(=O)CCC1=O , what call appears in the results of this test?
Result :: -1

Query :: For CCCN1CNc2c(c(=O)[nH]c(=S)n2CCc2ccccc2Cl)C1 , what call appears in the results of this test?
Result :: 1
